The following binders are listed with their measured kon values.
- assayedTarget: T1, recombinant human GM-CSF protein (human, UniProt P04141 18-144)
- T1 construct: Bought recombinant protein (Genscript); also called biotinylated human GM-CSF protein
- T1 sequence (P04141 18-144 limits assumed): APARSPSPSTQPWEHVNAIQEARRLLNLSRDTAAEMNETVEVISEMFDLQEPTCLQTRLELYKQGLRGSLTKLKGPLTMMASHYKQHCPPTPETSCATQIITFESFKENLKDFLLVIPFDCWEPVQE
- protocolDetails: SPR Biacore T200, antibody captured by anti-human Fc, GM-CSF as analyte, 25 C, 1:1 model

binder	unitSpec	kon
Hu50C5-21 (antibody, V domains shown, Humanized; also called 35230Hu50C5-21) VH: EVQLVQSGAEVKKPGSSVKVSCKASGYIFTPYSIHWVRQAPGQGLEWIGYINPSTGYIEYNQHFKDRTTLTADKSTSTAYMELRSLRSEDTAVYYCARGGDYEGYFDYWGQGTTVTVSS VL: DIQMTQSPSSLSASVGDRVTITCRLNENIYSFLAWYQQKPGKAPKLLIYNAETLAEGVPSRFSGSGSGTDFTLTISSLQPEDFATYYCQQHYGTPYTFGGGTKVEIK	M⁻¹ s⁻¹	4.59e+06
Hu50C5-8 (antibody, V domains shown, Humanized; also called 35230Hu50C5-8) VH: EVQLVQSGAEVKKPGSSVKVSCKASGYIFSPYSIHWVRQAPGQGLEWMGYINPSTGYIEYNQHFKDRVTITADKSTSTAYMELRSLRSEDTAVYYCARGGDYEGYFDYWGQGTTVTVSS VL: DIQMTQSPSSLSASVGDRVTITCRLNENIYSFLAWYQQKPGKAPKLLVYNAETLAEDVPSRFSGSGSGTDFTLTISSLQPEDFATYYCQQHYGTPYTFGGGTKVEIK	M⁻¹ s⁻¹	4.91e+06
Hu23F4-20 (antibody, V domains shown, Humanized) VH: EVQLVQSGAEVKKPGASVKVSCKASGYTFTSHYLHWVRQAPGQGLEWMGWIFPGDDKTKYNEKFKGRVTMTRDTSISTAYMELSRLRSDDTAVYYCARGTKYLNWNFDVWGQGTTVTVSS VL: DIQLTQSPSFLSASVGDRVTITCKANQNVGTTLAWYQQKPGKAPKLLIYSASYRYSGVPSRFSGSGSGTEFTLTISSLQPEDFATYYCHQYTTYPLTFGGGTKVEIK	M⁻¹ s⁻¹	801000
Hu50C5-6 (antibody, V domains shown, Humanized; also called 35230Hu50C5-6) VH: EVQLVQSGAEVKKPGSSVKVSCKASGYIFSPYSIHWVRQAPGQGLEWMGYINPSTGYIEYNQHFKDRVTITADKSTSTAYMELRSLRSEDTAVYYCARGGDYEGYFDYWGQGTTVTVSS VL: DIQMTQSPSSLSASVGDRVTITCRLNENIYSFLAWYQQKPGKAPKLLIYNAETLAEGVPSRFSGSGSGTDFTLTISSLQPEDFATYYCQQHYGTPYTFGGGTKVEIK	M⁻¹ s⁻¹	4.42e+06
Hu23F4-29 (antibody, V domains shown, Humanized) VH: EVQLVQSGAEVKKPGASVKVSCKASGYTFTSHYLHWVRQAPGQGLEWMGWIFPGDDKTKYNEKFKGRVTLTSDTSISTAYMELSRLRSDDTAVYYCARGTKYLNWNFDVWGQGTTVTVSS VL: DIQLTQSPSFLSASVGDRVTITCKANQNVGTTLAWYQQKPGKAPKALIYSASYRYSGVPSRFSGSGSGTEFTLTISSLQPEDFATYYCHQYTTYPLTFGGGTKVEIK	M⁻¹ s⁻¹	667000
Hu23F4-23 (antibody, V domains shown, Humanized) VH: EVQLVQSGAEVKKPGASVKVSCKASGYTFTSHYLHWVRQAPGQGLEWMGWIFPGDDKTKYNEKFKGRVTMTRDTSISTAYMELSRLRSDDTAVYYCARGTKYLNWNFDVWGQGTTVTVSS VL: DIQLTQSPSFLSASVGDRVTITCKANQNVGTTLAWYQQKPGKSPKALIYSASYRYSGVPDRFSGSGSGTDFTLTISSLQPEDFATYFCHQYTTYPLTFGGGTKVEIK	M⁻¹ s⁻¹	899000
Hu50C5-23 (antibody, V domains shown, Humanized; also called 35230Hu50C5-23) VH: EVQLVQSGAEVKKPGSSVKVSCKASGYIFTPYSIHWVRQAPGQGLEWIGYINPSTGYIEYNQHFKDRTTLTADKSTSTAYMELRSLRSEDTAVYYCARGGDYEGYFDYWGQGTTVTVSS VL: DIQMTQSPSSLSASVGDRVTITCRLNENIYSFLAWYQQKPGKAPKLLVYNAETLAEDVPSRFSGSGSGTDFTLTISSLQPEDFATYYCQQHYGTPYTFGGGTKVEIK	M⁻¹ s⁻¹	4.54e+06
Hu50C5-18 (antibody, V domains shown, Humanized) VH: EVQLVQSGAEVKKPGSSVKVSCKASGYIFSPYSIHWVRQAPGQGLEWIGYINPSTGYIEYNQHFKDRTTLTADKSTSTAYMELRSLRSEDTAVYYCARGGDYEGYFDYWGQGTTVTVSS VL: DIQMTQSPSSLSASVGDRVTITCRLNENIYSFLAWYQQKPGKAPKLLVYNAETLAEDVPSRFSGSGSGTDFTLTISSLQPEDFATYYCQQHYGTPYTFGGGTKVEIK	M⁻¹ s⁻¹	4.72e+06
Hu23F4-27 (antibody, V domains shown, Humanized) VH: EVQLVQSGAEVKKPGASVKVSCKASGYTFTSHYLHWVRQAPGQGLEWMGWIFPGDDKTKYNEKFKGRVTMTSDTSISTAYMELSRLRSDDTAVYYCARGTKYLNWNFDVWGQGTTVTVSS VL: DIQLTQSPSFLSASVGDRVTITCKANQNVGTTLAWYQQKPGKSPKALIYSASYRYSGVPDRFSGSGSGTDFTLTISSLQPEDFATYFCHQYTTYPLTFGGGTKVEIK	M⁻¹ s⁻¹	923000
Hu50C5-17 (antibody, V domains shown, Humanized; also called 35230Hu50C5-17) VH: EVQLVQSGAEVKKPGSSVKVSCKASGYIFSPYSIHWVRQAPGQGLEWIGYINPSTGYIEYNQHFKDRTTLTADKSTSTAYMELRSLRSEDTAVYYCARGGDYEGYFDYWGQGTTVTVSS VL: DIQMTQSPSSLSASVGDRVTITCRLNENIYSFLAWYQQKPGKAPKLLVYNAETLAEGVPSRFSGSGSGTDFTLTISSLQPEDFATYYCQQHYGTPYTFGGGTKVEIK	M⁻¹ s⁻¹	4.47e+06
